# Tested on: HOP-92
# test.summary: NCI tumour cell line growth inhibition, 48 h
The source made the active and inactive calls. Cut-off read from the data, not from the text of the source: active = GI50 up to about 1.1 µM and inactive = higher.
Provide the reported GI50 of each item.

Observe how each entry below is paired with its result.
# compound, GI50
rows = [
    ("CC12CC(C#N)(C#N)C(C#N)(CO1)C(=N)O2 (configuration not stated)", "52.7 µM (inactive)"),
    ("Cc1ccnc2c1ccc1nc3ccccc3n12", "85.1 µM (inactive)"),
    ("O=C1C=CC(=O)C1(Br)Br", "16.3 µM (inactive)"),
]

Batch of 4 compounds: report GI50 for each.
1. CC(CCC(=O)O)[C@H]1CCC2[C@H]3C(CC(=O)[C@@]21C)[C@@]1(C)CCC(O)C[C@H]1C[C@@H]3O (some centres not stated)
2. C[C@@H]1C[C@@]2(O[C@@H]2C)C(=O)O[C@@H]2CCN3CC=C(COC(=O)[C@]1(C)O)[C@H]23
3. CC(CCC=O)CCOCc1ccccc1 (configuration not stated)
4. CC(C)c1ccc(NC(=S)NC(=O)c2ccccc2)cc1

-- reply
1: > 100 µM (inactive); 2: 10.7 µM (inactive); 3: > 100 µM (inactive); 4: 40.9 µM (inactive)

---

# Tested on: LOX IMVI
# test.summary: NCI tumour cell line growth inhibition, 48 h
Active and inactive are the calls of the source. No stated cut-off is given here; in the data, active = GI50 up to about 1.1 µM and inactive = higher.
Provide the reported GI50 of each item.

# compound, measured.result
data = [
    ("O=C1Nc2ccc(Cl)c(I)c2C1=O", "18.5 µM (inactive)"),
    ("COC(=O)c1cc(-c2ccc3ccccc3c2)nc(O)c1C#N", "> 100 µM (inactive)"),
    ("O=C1C(=O)N(c2nccs2)C(=O)C(=O)C1c1nc2ccccc2s1", "> 100 µM (inactive)"),
]

As a next step, examine the compound that follows.
-- ask Indicate its recorded GI50; the compound in question is CCc1ccc(Cc2ccc(CC)c(NC(=O)C(=O)C3NC(=S)NC3=O)c2CC)c(CC)c1NC(=O)C(=O)C1NC(=S)NC1=O (centres undefined)
-- reply > 100 µM (inactive)

---

# Tested on: SF-539
# test.summary: NCI tumour cell line growth inhibition, 48 h
Calls of active or inactive are those of the source. Rule as the data show it: active = GI50 up to about 1.1 µM and inactive = higher. Non-standard residues stand in square brackets, D forms with d. Residues, ends and D or L forms follow the SMILES beside them. *: point of attachment. Bn2Val = CC(C)[C@@H](C(=O)*)N(Cc1ccccc1)Cc1ccccc1; NMeV = CN[C@H](C(=O)O)C(C)C; X32 = COc1ccc(CN*)c(OC)c1; dNMeA = CN[C@H](C)C(=O)O
Provide the reported GI50 of each item.

Observe how each entry below is paired with its result.
# compound, assay.target, measured.result
measured = [
    ("COc1ccc(CNC(=O)[C@@H]2CCCN2C(=O)[C@@H](C)N(C)C(=O)[C@H](C(C)C)N(C)C(=O)[C@@H](NC(=O)[C@H](C(C)C)N(Cc2ccccc2)Cc2ccccc2)C(C)C)c(OC)c1 (Bn2Val-V[NMeV][dNMeA]P-X32)", "SF-539", "2.44 µM (inactive)"),
    ("CCOc1cc(/C=C2\\N=C(c3ccccc3)N(c3nc4ccccc4s3)C2=O)ccc1O", "SF-539", "50 µM (inactive)"),
    ("CO/C(=N\\N=C\\c1ccc(Cl)c(Cl)c1)c1ccncc1", "SF-539", "> 10 µM (inactive)"),
]

As a next step, examine the compound that follows.
-- ask Indicate its recorded GI50; the compound in question is O=CNc1ccccc1OCCOc1ccccc1NC=O
-- reply > 100 µM (inactive)

---

Provide the reported GI50 of each item.
# Test system: NCI-H522
# test.summary: NCI tumour cell line growth inhibition, 48 h
Active and inactive are the calls of the source. Cut-off read from the data, not from the text of the source: active = GI50 up to about 1.1 µM and inactive = higher.

Observe how each entry below is paired with its result.
# entry.smiles, measured.result
records = [
    ("COc1ccc(CNc2nc(NCc3ccc(OC)cc3)nc(NC3CCCC3)n2)cc1", "2.99 µM (inactive)"),
    ("O=C(NCc1ccccc1)c1cc2cc(O)c(O)cc2cn1", "4.69 µM (inactive)"),
    ("COc1cc(OC)cc(OCc2ccc3nc(-c4ccccc4)c(Cl)nc3c2)c1", "5.05 µM (inactive)"),
]

As a next step, examine the compound that follows.
-- ask Indicate its recorded GI50; the compound in question is O=C1Cc2c(-c3ccccc3)cc(-c3ccccc3)nc2-c2ccccc2N1
-- reply 7.18 µM (inactive)

---

# System: KM12
# test.summary: NCI tumour cell line growth inhibition, 48 h
Active and inactive are the calls of the source. No stated cut-off is given here; in the data, active = GI50 up to about 1.1 µM and inactive = higher.
Please answer using one outcome listed in true (active), false (inactive)

# molecule, assay.target, category
records = [
    ("c1ccc2c(c1)-c1ccccc1C2NC1=NCCO1", "KM12", "false"),
]

-- ask I'd appreciate the recorded outcome for Cc1c(/N=N/c2ccccc2)c(-c2ccccc2)n(C2OC(CO)C(O)C(O)C2O)c(=S)c1C#N (centres undefined) from this test.
-- reply false

-- ask I'd appreciate the recorded outcome for COc1cc(OC)cc(OCc2ccc3nc(-c4ccccc4)c(Cl)nc3c2)c1 from this test.
-- reply false

---

# System: COLO 205
# test.summary: NCI tumour cell line growth inhibition, 48 h
Activity calls are given as the source filed them. No stated cut-off is given here; in the data, active = GI50 up to about 1.1 µM and inactive = higher. Where a SMILES comes first, the peptide text is derived from it. The star is where a group is joined. Cbz = O=C(OCc1ccccc1)*
Please answer using one outcome listed in active, inactive

# compound, category
measured = [
    ("Cc1ccc(C(=O)CCC2C(=O)CC(C)(C)CC2=O)cc1", "inactive"),
    ("O=c1c(C(c2ccccn2)c2c(O)oc3cc(O)ccc3c2=O)c(O)oc2cc(O)ccc12", "inactive"),
    ("CCOC(=O)CCC(NC(=O)C(Cc1ccccc1)NC(=O)OCc1ccccc1)C(=O)OCC (stereo not drawn) (Cbz-Phe-Glu(OEt)-OEt; configuration not given here)", "inactive"),
    ("Cc1ccc(NC(=O)/C(CC2Nc3c(ccc4c3C(=O)c3ccccc3C4=O)NC2O)=N/NC(C)(C)C)cc1 (stereo not given)", "inactive"),
    ("COc1ccccc1/[N+]([O-])=C/c1ccccc1OC(=S)S", "inactive"),
]

-- ask I'd appreciate the recorded outcome for CCOC(=O)C1C2CCC(C2)C1(CCl)C(=O)OCC (stereo not given) from this test.
-- reply inactive

-- ask I'd appreciate the recorded outcome for CC#CC(O)(C(=O)OCCCN(C)C)C1CCCCC1 (stereo not given) from this test.
-- reply inactive

-- ask I'd appreciate the recorded outcome for CCOC(=O)c1cnc2oc(/C=N/N3CC(CN4CCOCC4)OC3=O)cc2c1O (stereo not given) from this test.
-- reply inactive

-- ask I'd appreciate the recorded outcome for CCc1c(C#N)c(=O)[nH]c(=O)n1CCN1CCN(C(=O)NCCCCCCNC(=O)N2CCN(CCn3c(CC)c(C#N)c(=O)[nH]c3=O)CC2)CC1 from this test.
-- reply inactive

-- ask I'd appreciate the recorded outcome for CCOC(=O)C1(C)CCc2sc(N)c(C#N)c21 (stereo not given) from this test.
-- reply inactive

---

# Tested on: RXF 393
# test.summary: NCI tumour cell line growth inhibition, 48 h
The source made the active and inactive calls. Rule as the data show it: active = GI50 up to about 1.1 µM and inactive = higher.
Please answer using one outcome listed in YES = active, NO = inactive

Please review the following examples before continuing.
# compound, category
measured = [
    ("CC(=O)n1[nH]c(=O)n(-c2ccccc2)c1=O", "NO"),
    ("CC1(C)CCC(C)(C)c2cc(C(=O)Nc3ccc(C(=O)O)cc3)ccc21", "NO"),
    ("COC(=O)CN1Cc2cc(C)cc(c2O)CN(CC(=O)OC)Cc2cc(C)cc(c2O)CN(CC(=O)OC)Cc2cc(C)cc(c2O)CN(CC(=O)OC)Cc2cc(C)cc(c2O)C1", "NO"),
    ("Cc1ccc(NC(=S)N/N=C2\\C(=O)Nc3ccccc32)cc1", "NO"),
    ("Cc1cc(O)c2c(=O)c3ccccc3[nH]c2c1", "NO"),
]

Now look at this one.
-- ask I'd appreciate the recorded outcome for OC[C@@H](O)[C@H]1NC[C@@H](O)[C@H]1O from this test.
-- reply NO

---

Provide the reported GI50 of each item.
# Test system: RPMI-8226
# test.summary: NCI tumour cell line growth inhibition, 48 h
Active and inactive are the calls of the source. Rule as the data show it: active = GI50 up to about 1.1 µM and inactive = higher.

Observe how each entry below is paired with its result.
# compound, GI50
records = [
    ("CC(=O)OCC1OC(n2c(-c3ccc(C)cc3)cc(-c3ccccc3)c(C#N)c2=S)C(OC(C)=O)C(OC(C)=O)C1OC(C)=O (configuration not stated)", "> 100 µM (inactive)"),
    ("Cc1c(N)nc([C@H](CC(N)=O)NC[C@H](N)C(N)=O)nc1C(=O)N[C@H](C(=O)N[C@H](C)[C@@H](O)CC(=O)N[C@H](C(=O)NC(O[C@@H]1O[C@@H](C)[C@@H](N)[C@@H](O)[C@H]1O)C(O)c1nc(-c2nc(C(=O)NCCC[S+](C)C)cs2)cs1)[C@@H](C)O)[C@H](O[C@@H]1O[C@@H](CO)[C@@H](O)[C@H](O)[C@@H]1O[C@H]1O[C@H](CO)[C@@H](O)[C@H](OC(N)=O)[C@@H]1O)c1c[nH]cn1 (some centres not stated)", "> 100 µM (inactive)"),
    ("COC1CN(C)/C(=N\\c2cccc3ccccc23)S1 (configuration not stated)", "> 10 µM (inactive)"),
    ("CN(C)CC1CCC/C(=C\\c2ccc(OC(=O)/C=C/c3ccc(Cl)c(Cl)c3)cc2)C1=O (configuration not stated)", "0.164 µM (active)"),
    ("O=c1/c(=C/c2ccc([N+](=O)[O-])o2)sc2n1[C@@H](c1ccc(Cl)cc1)C=C(c1cc(F)c(Cl)cc1Cl)N=2", "5.16 µM (inactive)"),
    ("CCCCCCOC(=O)/C=C/[C@]1(CO)C/C(=C/CC(C(C)C)C(C)C)C(=O)O1", "15.7 µM (inactive)"),
    ("CC(CCC(=O)O)[C@H]1CCC2[C@H]3C(CC(=O)[C@@]21C)[C@@]1(C)CCC(O)C[C@H]1C[C@@H]3O (some centres not stated)", "> 100 µM (inactive)"),
    ("CO[C@]12S[C@@H]3CCCC[C@@]31C(C)(C)C(=O)N2c1ccccc1", "24.7 µM (inactive)"),
    ("COc1ccc(-n2c(CCCC(=O)O)nc3c2C(=O)c2ccccc2C3=O)cc1", "36.3 µM (inactive)"),
    ("N#CC(C#N)=C(C(C#N)C#N)C(C#N)C#N", "> 100 µM (inactive)"),
]

Batch of 7 compounds: report GI50 for each.
1. O=C1CSC(C(/N=N/c2ccc(Cl)cc2)c2nc3ccccc3[nH]2)=N1 (configuration not stated)
2. COc1cc2c(cc1O)Cc1c-2[n+](C)cc2cc(OC)c(OC)cc12
3. CS(=O)(=O)Nc1ccc2c(c1)N(S(C)(=O)=O)CC2COS(C)(=O)=O (configuration not stated)
4. CC(=O)Oc1c(C)cc2c(c1C)C(C)(C)CN2C(=O)C(C)(C)C
5. O=C(O)C1(C(=O)O)CC1
6. O=S1(=O)c2cc(S(=O)(=O)n3ccnc3)ccc2NC2=NCCCN21
7. CCOC(=O)c1cnc2oc(/C=N/N3CC(CN4CCOCC4)OC3=O)cc2c1O (configuration not stated)

-- reply
> 100 µM (inactive)
9.14 µM (inactive)
25.8 µM (inactive)
53.8 µM (inactive)
> 100 µM (inactive)
50 µM (inactive)
> 100 µM (inactive)

Data provenance: ChEMBL document CHEMBL1201862
